# assayed_target: HLA-B*15:01
# measurement_notes: IEDB peptide-MHC binding, purified MHC/competitive/radioactivity; filed as Kd, often an IC50 or EC50 that approximates it; bounds were set here for any values at or beyond the usual limits of such assays
# experimental_context: source organism: Dengue virus 1 Singapore/S275/1990
measured_endpoint: Kd (nM)
# unit: nM | format: bare number

Ask: Tell me its Kd given "FQSHQLWATL" as the entry.
Reply: 30.4

###

# assayed_target: HLA-B*58:01
# measurement_notes: IEDB peptide-MHC binding, purified MHC/direct/fluorescence; filed as Kd, often an IC50 or EC50 that approximates it; bounds were set here for any values at or beyond the usual limits of such assays
# experimental_context: source organism: Toxoplasma gondii
measured_endpoint: pKd
Keep in mind that pKd stands for -log10 of concentration in molar terms.

Ask: Give the reported value of pKd for this record: "KTSGRGSCM"
Reply: 5.22
